# System: LXRb:RXRa (NR concentration 270 nM, RXRa partner concentration 90 nM)
# Protocol Text: PBM binding z-score (relative to random genomic background probes); higher = stronger binding; sequences stand for … in GC…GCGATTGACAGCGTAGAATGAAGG

Seq	PBM binding z-score
CGTCCAAGGTCAATGTTAGGTCAGTGAAAGCATT	4.38
CGAACTAGGTCACCAGGACAGTGGAGAGGTTGGA	1.58
GCTGCTAGGTCAACTGAGGGTCAGCTAAAGCTCG	3.45
ATATGTAGGTTACATCGGGGTCATTCAGGCTATG	4.91
CCTAGTTGGTCAAGGTCACACATGCTATAGGTAC	3.88
CCTAGTGGGCCAAAGGTCATTGATTCCAATGCTC	5.23
GCTAGTGGGTCAGTAAAAGGTCACACACCGGTCG	4.61
ATATGCAGGTTAGGGTCATTCAGAAAGTAGGGAA	4.2
ATATGTAGGTTAGGGTCATTCACAAAGTAGGGAA	4.7
CTATGTAGCTTAAGGGGGTCATTCAGTTTGAAAG	6.2
CGAACTAGGTCAAAGGACAGTGATAGGCGACGTA	1.64
CGAACTAGGTCATCGAGGACAGTGAATACATTGA	1.9
TCTAGGAGGACACGAAGGTCAGAGCTTTCCAGAG	0.856
CTCGAAAGGTCGTGCTTAGGTGAGTATACCAAAC	3.46
CATCCAAGGTCAAAGGTCAGTGAAGAGATGACGG	7.03
CGAACTAGGTCAAAGGACAGTGAGAGGCGACGTA	1.41
TCGAGTAGGTAACGGGGGCATTCAGGGATGAAGA	4.16

* * *

# System: VDR homodimer (NR concentration 270 nM)
# Protocol Text: PBM binding z-score (relative to random genomic background probes); higher = stronger binding; sequences stand for … in GC…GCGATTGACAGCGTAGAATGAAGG

Seq	PBM binding z-score
TCGAGTAGGGTACGGGGGCATTCAGGGATGAAGA	3.8
TAGCCTAGGTCATTGTGCCAGTATAGTACGCATC	1.2
GCTTACGGGTCAAAAGTTATAGCATGAATAGAAT	0.684
CTATGTAGGTTAAGGGGGTCAGTCAGTTTGAAAG	3.99
TCGGGTAGGTTACGGGGGCATTCAGGGATGAAGA	4.85
ATATGTAGGTTAGGATCATTCAGAAAGTAGGGAA	0.616
CGAACTGGGTCAAAGGACAGTGAAAGGCGACGTA	0.185
CCAAGTAGGTTACGAGGGGGCATTCAGTGCGAAT	3.82
CCAGACAGGTGAAAGGTCACTCAGTCTGGTACGC	2.37
CCTTACAGGTCACGAGGTTATAGCACGACGAGCG	2.48
AGAATGAGGTTAGCAAAGATCAGGGAAACGCTTG	-0.135
TCGAGTAGGTTACGGTGGCATTCAGGGATGAAGA	-0.35

* * *

Listed here: items and their measured PBM binding z-score.
# System: PPARa:RXRa (NR concentration 270 nM, RXRa partner concentration 90 nM)
# Protocol Text: PBM binding z-score (relative to random genomic background probes); higher = stronger binding; sequences stand for … in GC…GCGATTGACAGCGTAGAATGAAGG

Seq	Target Desc	PBM binding z-score
CTATTTAGGTTAAGGGGGTCATTCAGTTTGAAAG	PPARa:RXRa (NR concentration 270 nM, RXRa partner concentration 90 nM)	5.72
TGTCAAAGTTCTAAGGTAACGTAAGTATCCACAC	PPARa:RXRa (NR concentration 270 nM, RXRa partner concentration 90 nM)	0.624
CGAACTAGGTCAGAGGACAGTGAAAGGCGACGTA	PPARa:RXRa (NR concentration 270 nM, RXRa partner concentration 90 nM)	3.61
CCGACGGGGGCAGAAAGGTTACCATACCATCCGG	PPARa:RXRa (NR concentration 270 nM, RXRa partner concentration 90 nM)	3.93
CTATGTAGGTTAAGGGGGCCATTCAGTTTGAAAG	PPARa:RXRa (NR concentration 270 nM, RXRa partner concentration 90 nM)	4.65
CGTCCAAGGGCAGCAGGTCAGTGAAAGCGACGTG	PPARa:RXRa (NR concentration 270 nM, RXRa partner concentration 90 nM)	0.938
AAAATGAGGTTAAGATCAGGGAAACAGAATACAT	PPARa:RXRa (NR concentration 270 nM, RXRa partner concentration 90 nM)	4.04
GCTGCAAGGTCAACTGATGGTCAGCTAAAGCTCG	PPARa:RXRa (NR concentration 270 nM, RXRa partner concentration 90 nM)	5.97
CTATGTAGGTTAAGGGGGTCATTCATTTTGAAAG	PPARa:RXRa (NR concentration 270 nM, RXRa partner concentration 90 nM)	5.9
CTAGGTAGGTTAAGGGGGTCATTCAGTTTGAAAG	PPARa:RXRa (NR concentration 270 nM, RXRa partner concentration 90 nM)	5.56
CGGACTAGGTCACCAGGACAGTGAAGAGGTTGGA	PPARa:RXRa (NR concentration 270 nM, RXRa partner concentration 90 nM)	4.41
ACTCGGAGGATAAAGGTCAGAGCTACGCCAGTGA	PPARa:RXRa (NR concentration 270 nM, RXRa partner concentration 90 nM)	4.23

* * *

Listed here: items and their measured PBM binding z-score.
# Test system: PPARg DBDmut IVT, anti-PPARg (DBD mutation: PPARg1 K132A/R137A, NR concentration 270 nM)
# Protocol Text: PBM binding z-score (relative to random genomic background probes); higher = stronger binding; sequences stand for … in GC…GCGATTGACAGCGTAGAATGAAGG
Experimental Readout: PBM binding z-score

Seq	Experimental Readout	Result Value
CAAACTAGGTCACGAGGTCAAAGTCCGCTTCCCG	PBM binding z-score	3.48
TCTCGGAGGACACGAAGGTCAGCGCTTTCCAGAG	PBM binding z-score	-0.884
CCGACTGGGTCAAAGGTTACCATACTCAGTACGA	PBM binding z-score	0.000446
CTCGAAAGGTCGAGCTCAGGTGAGTATACCAAAC	PBM binding z-score	0.22
CGTCCAAGGTCAGAGAGGTCAGTGTATGCCGAGT	PBM binding z-score	0.446
AATACAGGGTCATTAGGCCAGAGTAGGTACGAAT	PBM binding z-score	0.677

* * *

# System: LXRa:RXRa (NR concentration 270 nM, RXRa partner concentration 90 nM)
# Protocol Text: PBM binding z-score (relative to random genomic background probes); higher = stronger binding; sequences stand for … in GC…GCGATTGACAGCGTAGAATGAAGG
Lab note: anything with PBM binding z-score at or over 2 counts as y; the rest go in n.

Seq	Label Value
CCAACTAGGTCATTGACAGGACAGTGAATAGTAA	y
ACTCGGAGGACAAAGGTAAGAGCTACGCCAGTGA	n
CCTACTGGGCCAAGCTCATTGATCAGTCAAAGCA	n
CTATGTAGGTTAAGAGGGTCATTCAGTTTGAAAG	y
TCGAGTAGGTTACGGGGGCATTCATGGATGAAGA	y
CGAACCAGGTCACCAGGACAGTGAAGAGGTTGGA	y
CGAACTAGGTCACCAGGACGGTGAAGAGGTTGGA	y
GGAACTAGGGCAAAGTTGATAGCATCTGTCGACG	n
GATTACGGGTCAAAGGTTATAGCATGAATAGAAT	y
ATAGGTAGGTTAGGGTCATTCAGAAAGTAGGGAA	y
ATACCAAGGTCATCGTGAGGTCGTTGATACTAAC	y
CCTAGCAGGCCAATCGGGGTCACTCAAGGCTTGA	y

* * *

Listed here: items and their measured PBM binding z-score.
# Tested on: FXR:RXRa (NR concentration 270 nM, RXRa partner concentration 90 nM)
# Protocol Text: PBM binding z-score (relative to random genomic background probes); higher = stronger binding; sequences stand for … in GC…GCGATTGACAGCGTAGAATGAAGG

Seq	PBM binding z-score
CGTCAAAGTTCAAGCTAACGTAACAGAAAGCAGC	7.1
TCGAGTAGGTTACGGGGGCTTTCAGGGATGAAGA	1.64
CAATCTAGGTCACAGAGGTCAAAGTCCGTGCGTA	7.18
CTATGTAGGTTAAGGGGGTCATTCTGTTTGAAAG	4.82
CGAACTCGGTCACCAGGACAGTGAAGAGGTTGGA	0.841
CCTACTGGGCCATTCAGAGGTCACTGATCATATG	1.98
ACTAGGAGGACAAAGGTCAGAGCTACGCCAGTGA	4.32
CAAGCTAGGTCAAGAGGTCAAAGTCCGCTTCCCG	7.28
CCGAGTCGGTTACGAGGGGGCATTCAGTGCGAAT	0.716
CGAAATAGGTCACCAGGACAGTGAAGAGGTTGGA	5.67
ATATGTAGGTTAGAGTCATTCAGAAAGTAGGGAA	0.573
CGAACTTGGTCACCAGGACAGTGAAGAGGTTGGA	0.102
ATCGAAAGGTCGTCGAGGTGAGTATACACCGTTT	4.79
CCGAGTAGGTTACGAGGGGGCATTCATTGCGAAT	2
ATCGAAAGGTGGACGAGGTGAGTATACACCGTTT	0.217
CAAAATAGGTCAAGGTCAAAGTCGGTTTGTGCCA	7.38
AGTCAAAGTTCAGGACGAGGTAAAGTAAAGCACG	4.27
ATCGGAAGGTCGAGGTGAGTATAGAGAAAGGGAA	2.07
CCCCGGAGGACAGAAGGTCAGAGCTGTCCGCTTT	0.952
ACTTGGAGGACAAAGGTCAGAGCTACGCCAGTGA	4.75
TATACAGGATCAAAGGCCAGAGTACGAATGTCGA	0.361
CCGCGTAGGTTACGAGGGGGCATTCAGTGCGAAT	2.11
AGTCAAAGTTCAGGACGAGGTCACGTAAAGCACG	6.35
CAAACTAGGTCAAGAGGTCAAACTCCGCTTCCCG	7.36
CTATGTAGGTTAAGGGGGACATTCAGTTTGAAAG	1.22
CCGAGTAGGTTCCGAGGGGGCATTCAGTGCGAAT	0.618
CCGAGTTGGTTACGAGGGGGCATTCAGTGCGAAT	1.35
ATCGAACGGTCGAGGTGAGTATAGAGAAAGGGAA	-0.0198
CGAACTAGGTAAAGGACAGTGAATCTCCGCACGC	-0.281
CCTAGTTGGCCAAGGTCACACACGCTATAGGTAC	3.78
ATATGTAGGTTATCGGGTCATTCATTTTGCGCAT	3.17
TAGCCTAGGTCATTCAGGGGCCAGAATAGAAAGC	4.69
TCATATAGGTAATAAAGGTGAAAGTCGGCATCTA	1.82
CCTGCTAGGTCAATGGTCAGCTAAAGCAGCTCGC	3.01
ATATGTAGATTAGGGTCATTCAGAAAGTAGGGAA	4.07
CGTCCAAGGTCACAGGAGGTCAGTGAAGACAGAT	7.67
CCTTACCGGTCAAGGTTATAGCACGGGTGGTACG	1.7
TCTTGTAGGTCAAAGGTTAAGAAAGCCGAAGCCT	7.08
ATATGTAGGTTAGCGGGGGTCATTCAGACTAGGC	5.82
CCTACTGGGCCAATAAGGTCATTGATGCCGATAA	2.84
CGTCCGAGGTCAAAGGTCAGTGAAGAGATGACGG	8.25
CCTTACGGGTCCCTGACAGGTTATAGCATTTGGA	-0.274
CGTCAAAGTTCAACTAATGTAACGTAAAGCACGC	7.05
ATATGTAGGTTAGGTTCATTCAGAAAGTAGGGAA	1.59
CCGAGTAGGTTACGAGGGTGCATTCAGTGCGAAT	0.536
CGAACTATGTCACCAGGACAGTGAAGAGGTTGGA	0.32
CCTACGGGGCCAAGGTCATTGATCAGTCAAAGCA	3.57
CGATGTAGGTTAAGGGGGTCATTCAGTTTGAAAG	5.57
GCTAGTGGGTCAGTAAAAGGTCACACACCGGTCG	4.47
CGTTCAAGGTCATAGGAGGTCAGTGAAGACAGAT	7.91
TAGCCAAGGTCATTCAGGGGCCAGTATAGAAAGC	7.35
